- Subject of test: human TLR8 (Homo sapiens, UniProt Q9NR97)
- Sequence (Q9NR97 27-1041): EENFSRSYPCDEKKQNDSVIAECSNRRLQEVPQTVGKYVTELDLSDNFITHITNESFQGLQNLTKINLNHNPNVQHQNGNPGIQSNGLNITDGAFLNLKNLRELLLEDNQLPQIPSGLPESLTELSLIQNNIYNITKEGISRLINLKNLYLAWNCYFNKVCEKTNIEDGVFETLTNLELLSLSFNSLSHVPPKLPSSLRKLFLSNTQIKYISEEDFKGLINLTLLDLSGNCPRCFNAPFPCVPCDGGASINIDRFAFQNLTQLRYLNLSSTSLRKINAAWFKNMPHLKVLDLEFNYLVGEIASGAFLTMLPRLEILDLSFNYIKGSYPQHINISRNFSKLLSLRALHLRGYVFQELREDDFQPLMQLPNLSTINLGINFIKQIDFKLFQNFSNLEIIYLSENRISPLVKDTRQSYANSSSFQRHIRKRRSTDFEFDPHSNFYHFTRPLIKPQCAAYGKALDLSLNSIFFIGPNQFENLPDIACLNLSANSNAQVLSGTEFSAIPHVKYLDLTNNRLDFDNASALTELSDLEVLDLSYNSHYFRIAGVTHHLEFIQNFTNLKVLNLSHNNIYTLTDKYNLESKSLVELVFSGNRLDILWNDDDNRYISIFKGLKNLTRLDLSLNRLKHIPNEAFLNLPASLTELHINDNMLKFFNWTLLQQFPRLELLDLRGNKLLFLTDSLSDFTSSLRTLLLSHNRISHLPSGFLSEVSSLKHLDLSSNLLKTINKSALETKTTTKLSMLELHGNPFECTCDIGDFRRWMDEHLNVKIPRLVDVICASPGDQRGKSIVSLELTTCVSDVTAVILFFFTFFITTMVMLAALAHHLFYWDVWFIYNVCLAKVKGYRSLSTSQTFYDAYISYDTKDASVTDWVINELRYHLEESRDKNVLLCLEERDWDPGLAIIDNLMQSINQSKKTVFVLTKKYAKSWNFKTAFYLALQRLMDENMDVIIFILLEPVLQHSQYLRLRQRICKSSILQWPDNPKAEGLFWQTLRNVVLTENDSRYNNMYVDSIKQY
- Experimental details: TLR8 inhibition reporter assay (HEK-Blue cells, secreted embryonic alkaline phosphatase reporter)
- Condition notes: HEK-Blue cells overexpressing human TLR8, stimulated with R848 15.9 μM; read-out: TLR 8 IC50
pIC50: −log10 of the molar value.
pIC50 for assorted compounds

* Cc1cc(C2CCN(C3CC4CCC(C3)N4C3CCOCC3)CC2)cc2c1nc(-c1ccc(S(C)(=O)=O)cc1)n2C (single isomer, unassigned) [Example 161] | < 4.60
* CS(=O)(=O)c1ccc(-c2nc3ccc(C4CCN(C5CCN(C6CCC6)CC5)CC4)c(F)c3[nH]2)cc1 [Example 180] | < 4.30
* CC(C)N1C2CCC1CC(N1CCC(c3cc4nc(-c5ccc(S(C)(=O)=O)cc5)n(C)c4cc3F)CC1)C2 (single isomer, unassigned) [Example 100] | < 4.30
* CC(C)CN1CCC(N2CCC(c3cc(F)c4c(c3)nc(-c3ccc(S(C)(=O)=O)cc3)n4C)CC2)CC1 [Example 201] | < 4.30
* COc1ccc(-c2nc3c(C)cc(C4CCN(C5CC6(C5)CN(C(C)C)C6)CC4)cc3n2C)cc1OC [Example 16, tris(2,2,2-trifluoroacetate)] | < 4.30
* COc1ccc(-c2nc3c(C)cc(C4CCN(C5CCN(C(C)C)CC5)CC4)cc3n2C)cc1F [Example 23] | < 4.30
* Cn1c(-c2ccc(S(C)(=O)=O)cc2)nc2ccc(C3CCN(C4CCN(C5CCC5)CC4)CC3)c(F)c21 [Example 262] | < 4.30
* Cn1c(-c2ccc(S(C)(=O)=O)cc2)nc2cc(C3CCN(C4CC5CCC(C4)N5C4CCOCC4)CC3)c(F)cc21 (single isomer, unassigned) [Example 256] | < 4.30
* Cn1c(-c2ccc(S(C)(=O)=O)cc2)nc2cc(C3CCN(C4CC5CCC(C4)N5C4COC4)CC3)c(F)cc21 (single isomer, unassigned) [Example 253] | < 4.30
* CC(C)CN1CCC(N2CCC(c3ccc4nc(-c5ccc(S(C)(=O)=O)cc5)[nH]c4c3F)CC2)CC1 [Example 177] | < 4.30

I would be grateful if you could share the reported pIC50 for Cn1c(-c2ccc(S(C)(=O)=O)cc2)nc2cc(F)c(C3CCN(C4CCN(C5COC5)CC4)CC3)cc21 [Example 225] .
< 4.30

Likewise for CCOP(=O)(OCC)c1ccc(-c2nc3c(C)cc(C4CCN(C5CCN(C6CC6)CC5)CC4)cc3n2C)cc1 [Example 422] ?
4.56

Field entry: COc1ccc(-c2nc3cc(C4CCN(C5CCN(CC(C)C)CC5)CC4)c(C(F)(F)F)cc3[nH]2)cc1OC [Example 42]
< 4.30

---

Entries annotated with measured IC50
- Subject of test: human TLR7 (Homo sapiens)
- Sequence (Q9NYK1 27-1049): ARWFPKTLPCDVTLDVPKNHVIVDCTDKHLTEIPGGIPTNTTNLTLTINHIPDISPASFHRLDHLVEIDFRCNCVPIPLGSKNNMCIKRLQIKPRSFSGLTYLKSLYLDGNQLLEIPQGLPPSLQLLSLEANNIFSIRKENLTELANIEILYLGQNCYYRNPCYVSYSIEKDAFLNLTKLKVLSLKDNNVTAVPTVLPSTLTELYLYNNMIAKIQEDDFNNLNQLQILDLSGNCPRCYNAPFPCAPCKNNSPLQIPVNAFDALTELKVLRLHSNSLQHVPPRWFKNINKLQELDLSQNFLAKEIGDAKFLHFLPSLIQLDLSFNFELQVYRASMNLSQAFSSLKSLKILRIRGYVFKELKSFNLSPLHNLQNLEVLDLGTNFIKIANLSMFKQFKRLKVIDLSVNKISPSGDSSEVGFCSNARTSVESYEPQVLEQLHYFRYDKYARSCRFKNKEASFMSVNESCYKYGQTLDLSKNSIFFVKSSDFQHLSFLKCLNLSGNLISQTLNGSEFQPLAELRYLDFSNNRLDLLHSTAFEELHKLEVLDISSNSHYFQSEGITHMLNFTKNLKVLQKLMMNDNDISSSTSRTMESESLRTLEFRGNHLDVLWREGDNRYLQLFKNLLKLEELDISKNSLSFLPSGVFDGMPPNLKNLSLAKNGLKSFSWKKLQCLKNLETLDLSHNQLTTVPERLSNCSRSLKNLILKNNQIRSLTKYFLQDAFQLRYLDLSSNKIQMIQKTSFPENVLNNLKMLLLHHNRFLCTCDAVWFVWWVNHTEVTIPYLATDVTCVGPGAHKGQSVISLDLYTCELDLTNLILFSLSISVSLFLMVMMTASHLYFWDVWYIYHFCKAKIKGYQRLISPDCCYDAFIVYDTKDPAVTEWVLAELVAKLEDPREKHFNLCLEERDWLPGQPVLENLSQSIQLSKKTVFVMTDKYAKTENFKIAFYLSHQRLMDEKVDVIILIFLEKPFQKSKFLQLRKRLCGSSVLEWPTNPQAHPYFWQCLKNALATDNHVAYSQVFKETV
- Experimental details: TLR7 inhibition reporter assay (HEK-Blue cells, secreted embryonic alkaline phosphatase reporter)
- Condition notes: HEK-Blue cells overexpressing human TLR7, stimulated with gardiquimod 7.5 μM; read-out: TLR 7 IC50
Dear colleague, please return just the value in µM, with no unit written.

Below, 2 compounds whose answers are already recorded.
• Cn1c(-c2ccc(S(C)(=O)=O)cc2)nc2cc(C3CCN(C4CCN(C5CCC5)CC4)CC3)cc(F)c21 [Example 205] = 21.3
• COc1ccc(-c2nc3c(C)cc(C4C[C@H]5CC[C@@H](C4)N5C4CCN(C(C)C)CC4)cc3n2C)cc1OC (mixture of isomers) [Example 21] = 2.6

Now look at this one.
Item Cc1cc(C2CCN(C3CC4CCC(C3)N4CC3CC3)CC2)cc2[nH]c(-c3ccc(S(C)(=O)=O)cc3)nc12 (stereo not drawn) [Example 336] has what recorded IC50?
25.4
